- studySystem: human CCK2i4svR splice variant (Homo sapiens)
- Construct: membrane homogenates
- Sequence (P32239 1-516 isoform P32239-2): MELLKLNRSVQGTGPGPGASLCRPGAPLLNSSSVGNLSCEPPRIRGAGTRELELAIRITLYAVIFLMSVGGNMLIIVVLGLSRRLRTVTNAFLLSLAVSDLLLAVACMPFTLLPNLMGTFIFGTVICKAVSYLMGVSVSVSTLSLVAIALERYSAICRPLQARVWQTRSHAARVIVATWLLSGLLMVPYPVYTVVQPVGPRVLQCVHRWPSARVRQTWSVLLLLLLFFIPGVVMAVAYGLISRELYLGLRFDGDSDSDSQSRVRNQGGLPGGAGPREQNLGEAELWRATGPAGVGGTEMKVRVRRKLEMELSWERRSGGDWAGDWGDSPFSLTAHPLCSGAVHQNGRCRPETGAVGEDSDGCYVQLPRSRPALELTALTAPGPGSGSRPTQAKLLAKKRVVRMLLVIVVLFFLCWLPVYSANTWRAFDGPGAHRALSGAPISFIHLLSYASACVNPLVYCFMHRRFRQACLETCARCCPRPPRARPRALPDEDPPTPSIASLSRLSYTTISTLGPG
- assayMethodText: Competition binding against [125I][I-Tyr12,Leu15]gastrin-17 in HEK293-CCK2i4svR cell membranes
- conditionDescription: vs [125I][I-Tyr12,Leu15]gastrin-17, HEK293-CCK2i4svR cell membranes, 1 h 22 °C; mean ± SD
valueKind: pIC50
Scale: negative log10 of molar concentration, which is what pIC50 denotes.

In plain terms, CC(C)(C)C(=O)CN1C(=O)[C@H](NC(=O)Nc2cccc(C(=O)NCCOCCOCCOCCNC(=O)[C@H](CCC(=O)O)NC(=O)CN3CCN(CC(=O)[O-])CCN(CC(=O)[O-])CCN(CC(=O)[O-])CC3)c2)CN(C2CCCCC2)c2ccccc21.[In+3] [[^natIn]In-GAS1] has a documented pIC50 of 8.30

In plain terms, CC(C)(C)C(=O)CN1C(=O)[C@H](NC(=O)Nc2cccc(C(=O)NCCOCCOCCOCCNC(=O)[C@H](CCC(=O)O)NC(=O)CCC(C(=O)[O-])N3CCN(CC(=O)[O-])CCN(CC(=O)[O-])CC3)c2)CN(C2CCCCC2)c2ccccc21.[In+3] (stereo partly shown) [[^natIn]In-GAS2] has a documented pIC50 of 7.27

In plain terms, CC(C)(C)C(=O)CN1C(=O)[C@H](NC(=O)Nc2cccc(C(=O)NCCOCCOCCOCCNC(=O)[C@H](CCC(=O)O)NC(=O)CCC(C(=O)O)N3CCN(CC(=O)[O-])CCN(CC(=O)[O-])CCN(CC(=O)[O-])CC3)c2)CN(C2CCCCC2)c2ccccc21.[Lu+3] (stereo partly shown) [[^natLu]Lu-GAS3] has a documented pIC50 of 8.37

In plain terms, CC(C)(C)C(=O)CN1C(=O)[C@H](NC(=O)Nc2cccc(C(=O)NCCOCCOCCOCCNC(=O)[C@H](CCC(=O)O)NC(=O)CCC(C(=O)O)N3CCN(CC(=O)[O-])CCN(CC(=O)[O-])CCN(CC(=O)[O-])CC3)c2)CN(C2CCCCC2)c2ccccc21.[In+3] (stereo partly shown) [[^natIn]In-GAS3] has a documented pIC50 of 8.72

All figures here come from paper PMC8954547.
